# protocol.details: chemical genetic growth profiling, strain panel (AID 1159580);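 note: tested at 20 µM; growth read once vehicle control cultures reached saturation at 30 °C; 1 = growth at the plate median or of vehicle wells; lower values mean less growth of the strain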
# stated.conditions: S. cerevisiae deletion strains, growth OD, locus YDL101C, strain DUN1, hits give low values
Hit rate of the full screen: of about 5,500 compounds, about 2,000 (36%) were called active. Another 18% or so got no clear call; they are omitted. The list shows a part of the results.
experimental.endpoint: normalized growth

[
  {
    "compound": "N#CCS(=O)(=O)c1cccs1",
    "experimental.endpoint": "normalized growth",
    "result": 0.983
  },
  {
    "compound": "ONC(=Nc1ccccc1Cl)c1ccccc1Cl",
    "experimental.endpoint": "normalized growth",
    "result": 0.993
  },
  {
    "compound": "N#C/C(N=Cc1cc(Cl)cc(Cl)c1O)=C(\\C#N)N=Cc1cc(Cl)cc(Cl)c1O",
    "experimental.endpoint": "normalized growth",
    "result": 0.954
  },
  {
    "compound": "COc1c(O)cc2c(c1O)[C@H]1O[C@H](CO)[C@@H](O)[C@H](O)[C@@H]1OC2=O",
    "experimental.endpoint": "normalized growth",
    "result": 0.985
  },
  {
    "compound": "CO[C@H]1[C@H](O)[C@@H](O[C@H]2CC[C@]3(C=O)C4CC[C@]5(C)[C@@H](C6=CC(=O)OC6)CC[C@]5(O)C4CC[C@@H]3C2)O[C@@H](C)[C@@H]1O (stereo partly specified)",
    "experimental.endpoint": "normalized growth",
    "result": 0.973
  },
  {
    "compound": "Cc1ccc(Cl)cc1NC(=S)N(CCC#N)/N=C\\c1ccc2c(c1)OCO2",
    "experimental.endpoint": "normalized growth",
    "result": 1
  },
  {
    "compound": "C[C@H]1O[C@@H](O[C@H]2[C@@H](O)C[C@H](O[C@H]3[C@@H](O)C[C@H](O[C@H]4CC[C@]5(C)C6CC[C@]7(C)[C@@H](C8=CC(=O)OC8)CC[C@]7(O)C6CC[C@@H]5C4)O[C@@H]3C)O[C@@H]2C)C[C@H](O)[C@@H]1O (stereo partly specified)",
    "experimental.endpoint": "normalized growth",
    "result": 0.987
  },
  {
    "compound": "COc1cccc2c1CCC1=CC(=O)CC[C@@]12C",
    "experimental.endpoint": "normalized growth",
    "result": 1.01
  },
  {
    "compound": "CC1(C)S[C@@H]2[C@H](NC(=O)[C@@H](N)c3ccc(O)cc3)C(=O)N2[C@H]1C(=O)O",
    "experimental.endpoint": "normalized growth",
    "result": 1.01
  },
  {
    "compound": "NCCCCN",
    "experimental.endpoint": "normalized growth",
    "result": 1.01
  },
  {
    "compound": "Cn1c(SCC(=O)N2CCOCC2)nnc1-c1ccc2ncccc2c1",
    "experimental.endpoint": "normalized growth",
    "result": 1.03
  },
  {
    "compound": "O=C(O)c1ccccc1O",
    "experimental.endpoint": "normalized growth",
    "result": 1.01
  },
  {
    "compound": "C[C@]12CCC(=O)C=C1CCc1ccc(O)cc12",
    "experimental.endpoint": "normalized growth",
    "result": 1.01
  },
  {
    "compound": "COC(=O)C(N)CS (stereo unspecified)",
    "experimental.endpoint": "normalized growth",
    "result": 0.984
  },
  {
    "compound": "CO/N=C1/CC(C)(C)Cc2c(-c3ccn(C(=O)Nc4cccc(Cl)c4)n3)sc(SC)c21",
    "experimental.endpoint": "normalized growth",
    "result": 0.975
  },
  {
    "compound": "CCOC(=O)c1cnc2n(c1=O)CCS2",
    "experimental.endpoint": "normalized growth",
    "result": 1.05
  },
  {
    "compound": "CC1=CC(=O)C(C(C)C)=CC1=O",
    "experimental.endpoint": "normalized growth",
    "result": 0.954
  },
  {
    "compound": "CC(=O)OCC(=O)[C@@]1(O)CCC2C3C[C@H](C)C4=CC(=O)C=CC4(C)C3[C@@H](O)CC21C (stereo partly specified)",
    "experimental.endpoint": "normalized growth",
    "result": 1.01
  },
  {
    "compound": "C[C@]12CCC3C(CC[C@]4(O)C[C@@H](O)CC[C@]34C=O)[C@@]1(O)CCC2C1=CC(=O)OC1 (stereo partly specified)",
    "experimental.endpoint": "normalized growth",
    "result": 0.987
  },
  {
    "compound": "COc1ccc([N+](=O)[O-])c(OC)c1C(N)=O",
    "experimental.endpoint": "normalized growth",
    "result": 1.06
  },
  {
    "compound": "O=C(O)C1CC(=O)N(Cc2ccccc2Cl)C1 (stereo unspecified)",
    "experimental.endpoint": "normalized growth",
    "result": 0.994
  }
]

Data provenance: PubChem BioAssay AID1159580
